B1: LINE1-full (parent)
chain: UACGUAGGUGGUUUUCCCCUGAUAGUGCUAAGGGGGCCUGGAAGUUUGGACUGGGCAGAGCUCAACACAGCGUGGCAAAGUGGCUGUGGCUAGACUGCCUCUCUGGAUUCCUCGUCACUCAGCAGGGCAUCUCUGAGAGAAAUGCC

Variants of: B1
assay-summary: self-cleavage, relative activity (ratio to wild type); higher = more cleavage; in vitro, sequencing; the parent is a self-cleaving ribozyme
endpoint-label: self-cleavage
// keep it numeric: no unit symbol after the value

**Query** Look at this variant and give its reported self-cleavage. G32C A77U
**Result** 0.81

**Query** Now consider A6G U15G .
**Result** 0.97

**Query** // repeat for U5C U14A and report
**Result** 0.86

**Query** Moving on to A117C U119A
**Result** 1.77

**Query** Item: C18A U45A
**Result** 1.06

**Query** // repeat for U47A A77U and report
**Result** 1.46

**Query** Okay, and U62A A138G ?
**Result** 0.06

**Query** Similarly, C51A U109C ?
**Result** 1.35

**Query** Now give it for U5C A94G too.
**Result** 0.46

**Query** Cool, now A77U A129U
**Result** 1.24

**Query** Check A78U G135A too.
**Result** 1.8

**Query** What do you have for U29A A50U ?
**Result** 0.89

**Query** Another: A50U G89A
**Result** 0.02

**Query** What would you report for U14C U108A ?
**Result** 0.98

**Query** Record: C28G C98A
**Result** 0.12

**Query** What would you report for U39C U143A ?
**Result** 1.01

**Query** Please give the result for G34A U108C too.
**Result** 1.16

**Query** Repeat for the following variant: U1C C128A
**Result** 0.79

**Query** # iterate: C18U U134G
**Result** 1.95

**Query** Entry to check: U26G A57G
**Result** 0.82

**Query** Here is the next variant: A24G U39C
**Result** 1.11

**Query** How about C19U A121G ?
**Result** 0.42

**Query** How about this variant: A69G U81C
**Result** 0.54
